Test system: Human Mast Cells
Assay: Mast cell degranulation (histamine release), human mast cells
Type: cell-based
Conditions: human mast cells derived from CD34+ peripheral blood cells; 0.005 to 30 μM, 37° C., 30 min; less than 30% of total histamine content = negative
endpoint_label: Induce Histamine Release? Human Mast Cells

{"columns": ["molecule", "result_value"],
 "data": [
  ["CCCC[C@H](NC(=O)[C@@H]1CCCN1C(=O)CNC(=O)[C@H](CCCCN)NC(=O)[C@H](Cc1c[nH]cn1)NC(=O)[C@H](CO)NC(=O)C(C)(CC(C)C)NC(=O)[C@H](CCCCNC(=N)N)NC(=O)C1(C)CCCN1C(=O)[C@H](CCCNC(=N)N)NC(=O)[C@H](CCC(N)=O)NC(C)=O)C(=O)N1CCC[C@H]1C(=O)N[C@@H](Cc1ccc(Cl)cc1)C(=O)O (stereo partly shown)", "No"],
  ["CCCC[C@H](NC(=O)[C@@H]1CCCN1C(=O)CNC(=O)[C@H](CCCCN)NC(=O)[C@H](Cc1c[nH]cn1)NC(=O)[C@H](CO)NC(=O)[C@H](CC(C)C)NC(=O)[C@H](CCCNC(=N)N)N(C)C(=O)[C@@H]1CCCN1C(=O)[C@H](CCCNC(=N)N)NC(=O)[C@H](CCC(N)=O)NC(C)=O)C(=O)N1CCC[C@H]1C(=O)N[C@@H](Cc1ccc(Cl)cc1)C(=O)O", "No"],
  ["CCCC[C@H](NC(=O)[C@@H]1CCCN1C(=O)CNC(=O)[C@H](CCCCN)NC(=O)[C@H](Cc1c[nH]cn1)NC(=O)[C@H](CO)NC(=O)[C@H](CC(C)C)NC(=O)[C@H](CCCNC(=N)N)N(C)C(=O)[C@@H]1CCCN1C(=O)[C@H](CCCNC(=N)N)NC(=O)[C@H](CCC(N)=O)NC(=O)COCCOCCNC(=O)COCCOCCNC(=O)CC[C@H](NC(=O)CCC)C(=O)O)C(=O)N1CCC[C@H]1C(=O)N[C@@H](Cc1ccc(Cl)cc1)C(=O)O", "No"],
  ["CCCCCCCCCCCCC(=O)N[C@@H](CCC(=O)NCCOCCOCC(=O)NCCOCCOCC(=O)N[C@@H](CCC(N)=O)C(=O)N[C@@H](CCCNC(=N)N)C(=O)N1CCC[C@H]1C(=O)N(C)[C@@H](CCCNC(=N)N)C(=O)N[C@@H](CC(C)C)C(=O)N[C@@H](CO)C(=O)N[C@@H](Cc1c[nH]cn1)C(=O)N[C@@H](CCCCN)C(=O)NCC(=O)N1CCC[C@H]1C(=O)N[C@@H](CCCC)C(=O)N1CCC[C@H]1C(=O)N[C@@H](Cc1ccc(Cl)cc1)C(=O)O)C(=O)O", "Yes"]
]}

====

Assay: In vitro stability in rat liver homogenate
Type: in vitro ADME
Conditions: tissue homogenate
Protocol: Apelin peptides were spiked into rat plasma, liver homogenate, and kidney homogenate, which were obtained from commercial sources, to a final concentration of 5 μM. The samples were then incubated at 37° C. over a period of 4 hr. […] In a typical experiment, an aliquot of 100 μL of sample was taken from the incubation vial, followed by addition of 300 μL of MeOH containing internal standard. […] The supernatant was then analyzed by high resolution LC-MS. […]
Starred links: 1 amine or outer side, 2 acyl side, 3 side chain; linkers in the order of their positions; H or OH if unused. Non-standard residues stand in square brackets, D forms with d. Residues, ends and D or L forms follow the SMILES beside them. *: point of attachment. Phe(4-Cl) = N[C@@H](Cc1ccc(Cl)cc1)C(=O)O; γGlu = O=C(O)[C@H](CCC(=O)[*:2])N[*:1]; NMeR = CN[C@@H](CCCNC(=N)N)C(=O)O; Tridecanoyl = CCCCCCCCCCCCC(=O)*; Nle = CCCC[C@H](N)C(=O)O; AEEA = NCCOCCOCC(=O)O
endpoint_label: remaining at 4 h, 5 μM (%)

{"columns": ["molecule", "comparison_symbol", "result_value"],
 "data": [
  ["CCCCCCCCCCCCCCCCC(=O)N[C@@H](CCC(=O)NCCOCCOCC(=O)NCCOCCOCC(=O)N[C@@H](CCC(N)=O)C(=O)N[C@@H](CCCNC(=N)N)C(=O)N1CCC[C@H]1C(=O)N(C)[C@@H](CCCNC(=N)N)C(=O)N[C@@H](CC(C)C)C(=O)N[C@@H](CO)C(=O)N[C@@H](Cc1c[nH]cn1)C(=O)N[C@@H](CCCCN)C(=O)NCC(=O)N1CCC[C@H]1C(=O)N[C@@H](CCCC)C(=O)N1CCC[C@H]1C(=O)N[C@@H](Cc1ccc(Cl)cc1)C(=O)O)C(=O)O", "=", 3],
  ["CCCC[C@H](NC(=O)[C@@H]1CCCN1C(=O)CNC(=O)[C@H](CCCCN)NC(=O)[C@H](Cc1c[nH]cn1)NC(=O)[C@H](CO)NC(=O)[C@H](CC(C)C)NC(=O)[C@H](CCCNC(=N)N)N(C)C(=O)[C@@H]1CCCN1C(=O)[C@H](CCCNC(=N)N)NC(=O)[C@H](CCC(N)=O)NC(C)=O)C(=O)N1CCC[C@H]1C(=O)N[C@@H](Cc1ccc(Cl)cc1)C(=O)O", "<", 1],
  ["CCCCCCCCCCCCC(=O)N[C@@H](CCC(=O)NCCOCCOCC(=O)NCCOCCOCC(=O)N[C@@H](CCC(N)=O)C(=O)N[C@@H](CCC(=O)O)C(=O)N1CCC[C@H]1C(=O)N(C)[C@@H](CCCNC(=N)N)C(=O)N[C@@H](CC(C)C)C(=O)N[C@@H](CO)C(=O)N[C@@H](Cc1c[nH]cn1)C(=O)N[C@@H](CCCCN)C(=O)NCC(=O)N1CCC[C@H]1C(=O)N[C@@H](CCCC)C(=O)N1CCC[C@H]1C(=O)N[C@@H](Cc1ccc(Cl)cc1)C(=O)O)C(=O)O [compound 475] ({Tridecanoyl-γGlu-AEEA-AEEA}-QEP[NMeR]LSHKGP[Nle]P[Phe(4-Cl)]-OH)", "<", 1],
  ["CCCCCCCCCCCCC(=O)N[C@@H](CCC(=O)NCCOCCOCC(=O)NCCOCCOCC(=O)N[C@@H](CCC(N)=O)C(=O)N[C@@H](CCCNC(=N)N)C(=O)N1CCC[C@H]1C(=O)N[C@@H](CCCCNC(=N)N)C(=O)N[C@@H](CC(C)C)C(=O)N[C@@H](CO)C(=O)N[C@@H](Cc1c[nH]cn1)C(=O)N[C@@H](CCCCN)C(=O)NCC(=O)N1CCC[C@H]1C(=O)N[C@@H](CCCC)C(=O)N1CCC[C@H]1C(=O)N[C@@H](Cc1ccc(Cl)cc1)C(=O)O)C(=O)O", "=", 0],
  ["CCCC[C@H](NC(=O)[C@@H]1CCCN1C(=O)CNC(=O)[C@H](CCCCN)NC(=O)[C@H](Cc1c[nH]cn1)NC(=O)[C@H](CO)NC(=O)[C@H](CC(C)C)NC(=O)[C@H](CCCNC(=N)N)N(C)C(=O)[C@@H]1CCCN1C(=O)[C@H](CCCNC(=N)N)NC(=O)[C@H](CCC(N)=O)NC(=O)COCCOCCNC(=O)COCCOCCNC(=O)CC[C@H](NC(=O)CCC)C(=O)O)C(=O)N1CCC[C@H]1C(=O)N[C@@H](Cc1ccc(Cl)cc1)C(=O)O", "<", 1]
]}
